Consider the following compounds; for each one, report its pKi.
Target: VchCAβ (Vibrio cholerae, UniProt Q9KUD6)
Sequence (Q9KUD6 1-222): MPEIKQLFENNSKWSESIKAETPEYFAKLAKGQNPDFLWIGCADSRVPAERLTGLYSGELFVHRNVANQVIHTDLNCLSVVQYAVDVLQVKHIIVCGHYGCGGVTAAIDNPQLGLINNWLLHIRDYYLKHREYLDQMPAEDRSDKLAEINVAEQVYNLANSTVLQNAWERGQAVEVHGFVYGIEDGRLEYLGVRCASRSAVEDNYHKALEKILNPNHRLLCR
One number for each entry, as −log10 of the molar value.

In the examples that follow, each entry is paired with its recorded pKi.
> print(dat)
                                 mol.smiles  test.value
1  NS(=O)(=O)Nc1ccc(S(=O)(=O)N2CCN(C(c3ccc(F)cc3)c3ccc(F)cc3)CC2)cc1        5.36
2  NS(=O)(=O)Nc1cccc(S(=O)(=O)N2CCN(C(c3ccccc3)c3ccccc3)CC2)c1        5.33
3  NS(=O)(=O)Nc1cccc(S(=O)(=O)N2CCC(C(=O)N3CCN(C(c4ccccc4)c4ccccc4)CC3)CC2)c1        5.42
4  NS(=O)(=O)Nc1ccc(S(=O)(=O)NCC(=O)N2CCN(C(c3ccc(F)cc3)c3ccc(F)cc3)CC2)cc1        5.33
5  NS(=O)(=O)Nc1cccc(S(=O)(=O)N2CCC(C(=O)N3CCN(C(c4ccc(F)cc4)c4ccc(F)cc4)CC3)CC2)c1        5.80

Would you kindly look at the next entry?
**Q:** Field request: pKi | item: NS(=O)(=O)Nc1ccc(S(=O)(=O)N2CCN(C(c3ccccc3)c3ccccc3)CC2)cc1
**A:** 5.73

---

Biological target: hCA I (Homo sapiens, UniProt P00915)
Construct: recombinant, obtained in-house; cytosolic isoform
Sequence (P00915 2-261): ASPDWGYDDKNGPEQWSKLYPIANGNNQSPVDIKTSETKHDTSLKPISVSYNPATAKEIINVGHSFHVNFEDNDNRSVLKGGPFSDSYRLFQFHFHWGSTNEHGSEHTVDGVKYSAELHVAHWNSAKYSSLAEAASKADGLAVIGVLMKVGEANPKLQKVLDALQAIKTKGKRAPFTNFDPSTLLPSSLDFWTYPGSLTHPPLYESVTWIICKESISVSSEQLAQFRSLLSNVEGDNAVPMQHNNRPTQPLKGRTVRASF
Experiment: stopped-flow CO2 hydrase assay
pKi: −log10 of the molar value.
Quick rule for you: pKi at 7 or higher means class 1, lower means class 0.

> print(dat)
                                   compound  qualitative.label
1  NS(=O)(=O)Nc1ccccc1S(=O)(=O)NCC(=O)N1CCN(C(c2ccccc2)c2ccccc2)CC1 [6c]            class 0
2  NS(=O)(=O)Nc1cccc(S(=O)(=O)N2CCC(C(=O)N3CCN(C(c4ccccc4)c4ccccc4)CC3)CC2)c1 [6f]            class 1
3  NS(=O)(=O)Nc1ccccc1S(=O)(=O)N1CCC(C(=O)N2CCN(C(c3ccc(F)cc3)c3ccc(F)cc3)CC2)CC1 [6n]            class 0

Kindly consider the entry below.
**Q:** Entry NS(=O)(=O)Nc1ccc(S(=O)(=O)N2CCC(C(=O)N3CCN(C(c4ccc(F)cc4)c4ccc(F)cc4)CC3)CC2)cc1 [6p] : is its pKi no less than 7?
**A:** class 1

---

Target: hCA I (Homo sapiens, UniProt P00915)
Construct: recombinant, obtained in-house; cytosolic isoform
Experiment: stopped-flow CO2 hydrase assay
Text: stopped-flow CO2 hydrase assay on hCA I
Observation Type: pKi
One number for each entry, as −log10 of the molar value.

> print(dat)
                                   molecule  test.value
1  NS(=O)(=O)Nc1ccc(S(=O)(=O)N2CCN(C(c3ccccc3)c3ccccc3)CC2)cc1 [6b]        6.26
2  NS(=O)(=O)Nc1ccccc1S(=O)(=O)NCC(=O)N1CCN(C(c2ccc(F)cc2)c2ccc(F)cc2)CC1 [6k]        6.47
3  NS(=O)(=O)Nc1cccc(S(=O)(=O)N2CCN(C(c3ccc(F)cc3)c3ccc(F)cc3)CC2)c1 [6i]        7.12

State recorded pKi for all listed molecules.
1. NS(=O)(=O)Nc1ccc(S(=O)(=O)N2CCC(C(=O)N3CCN(C(c4ccccc4)c4ccccc4)CC3)CC2)cc1 [6g]
2. NS(=O)(=O)Nc1ccccc1S(=O)(=O)N1CCN(C(c2ccc(F)cc2)c2ccc(F)cc2)CC1 [6h]

**A:**
6.22
6.07

---

Target or system VchCAα (Vibrio cholerae, UniProt Q9KMP6): recorded log10 of Ki listed per item.
// do not treat as linear: log10 of Ki, unit nM

In the examples that follow, each entry is paired with its recorded log10 of Ki.
> print(dat)
                                 mol.smiles                               test.target  test.value
1  NS(=O)(=O)Nc1ccccc1S(=O)(=O)N1CCC(C(=O)N2CCN(C(c3ccc(F)cc3)c3ccc(F)cc3)CC2)CC1  VchCAα (Vibrio cholerae, UniProt Q9KMP6)        3.57
2  NS(=O)(=O)Nc1ccc(S(=O)(=O)N2CCN(C(c3ccc(F)cc3)c3ccc(F)cc3)CC2)cc1  VchCAα (Vibrio cholerae, UniProt Q9KMP6)        2.44
3  NS(=O)(=O)Nc1ccc(S(=O)(=O)N2CCN(C(c3ccccc3)c3ccccc3)CC2)cc1  VchCAα (Vibrio cholerae, UniProt Q9KMP6)        2.37

State recorded log10 of Ki for all listed compounds.
1. NS(=O)(=O)Nc1ccc(S(=O)(=O)N2CCC(C(=O)N3CCN(C(c4ccc(F)cc4)c4ccc(F)cc4)CC3)CC2)cc1
2. NS(=O)(=O)Nc1ccccc1S(=O)(=O)NCC(=O)N1CCN(C(c2ccc(F)cc2)c2ccc(F)cc2)CC1

**A:**
1. 2.60
2. 3.24

---

Consider the following compounds; for each one, report its pKi.
Biological target: hCA II (Homo sapiens, UniProt P00918)
Construct: recombinant, obtained in-house; cytosolic isoform
Experiment: stopped-flow CO2 hydrase assay
Answers are plain numbers, as −log10 of the molar value.

> print(dat)
                                 mol.smiles                            test.target  test.value
1  NS(=O)(=O)Nc1ccc(S(=O)(=O)N2CCC(C(=O)N3CCN(C(c4ccc(F)cc4)c4ccc(F)cc4)CC3)CC2)cc1  hCA II (Homo sapiens, UniProt P00918)        6.74

State recorded pKi for all listed compounds.
1. NS(=O)(=O)Nc1ccccc1S(=O)(=O)NCC(=O)N1CCN(C(c2ccc(F)cc2)c2ccc(F)cc2)CC1
2. NS(=O)(=O)Nc1ccccc1S(=O)(=O)N1CCC(C(=O)N2CCN(C(c3ccccc3)c3ccccc3)CC2)CC1
3. NS(=O)(=O)Nc1ccc(S(=O)(=O)N2CCC(C(=O)N3CCN(C(c4ccccc4)c4ccccc4)CC3)CC2)cc1
4. NS(=O)(=O)Nc1cccc(S(=O)(=O)N2CCC(C(=O)N3CCN(C(c4ccccc4)c4ccccc4)CC3)CC2)c1
5. NS(=O)(=O)Nc1ccccc1S(=O)(=O)N1CCN(C(c2ccc(F)cc2)c2ccc(F)cc2)CC1
6. NS(=O)(=O)Nc1cccc(S(=O)(=O)NCC(=O)N2CCN(C(c3ccc(F)cc3)c3ccc(F)cc3)CC2)c1
7. NS(=O)(=O)Nc1cccc(S(=O)(=O)N2CCN(C(c3ccccc3)c3ccccc3)CC2)c1

**A:**
[5.84, 5.87, 6.64, 6.24, 5.93, 6.66, 6.38]

---

Target: hCA II (Homo sapiens, UniProt P00918)
Construct: recombinant, obtained in-house; cytosolic isoform
Test: stopped-flow CO2 hydrase assay
Observation Type: Ki
In your response, put the unit directly after the numeric value.

In the examples that follow, each entry is paired with its recorded Ki.
> print(dat)
                                   molecule  test.value
1  NS(=O)(=O)Nc1cccc(S(=O)(=O)N2CCC(C(=O)N3CCN(C(c4ccc(F)cc4)c4ccc(F)cc4)CC3)CC2)c1 [6o]      663 nM
2  NS(=O)(=O)Nc1ccccc1S(=O)(=O)NCC(=O)N1CCN(C(c2ccccc2)c2ccccc2)CC1 [6c]      850 nM
3  NS(=O)(=O)Nc1cccc(S(=O)(=O)N2CCN(C(c3ccc(F)cc3)c3ccc(F)cc3)CC2)c1 [6i]      389 nM

State recorded Ki for all listed molecules.
1. NS(=O)(=O)Nc1ccc(S(=O)(=O)N2CCN(C(c3ccccc3)c3ccccc3)CC2)cc1 [6b]
2. NS(=O)(=O)Nc1cccc(S(=O)(=O)NCC(=O)N2CCN(C(c3ccccc3)c3ccccc3)CC2)c1 [6d]
3. NS(=O)(=O)Nc1ccc(S(=O)(=O)N2CCN(C(c3ccc(F)cc3)c3ccc(F)cc3)CC2)cc1 [6j]
4. NS(=O)(=O)Nc1ccc(S(=O)(=O)NCC(=O)N2CCN(C(c3ccc(F)cc3)c3ccc(F)cc3)CC2)cc1 [6m]
5. NS(=O)(=O)Nc1ccccc1S(=O)(=O)N1CCC(C(=O)N2CCN(C(c3ccc(F)cc3)c3ccc(F)cc3)CC2)CC1 [6n]

**A:**
["359 nM", "396 nM", "353 nM", "208 nM", "590 nM"]

---

Consider the following compounds; for each one, report its pKi.
Target: VchCAβ (Vibrio cholerae)
Numbers only, as −log10 of the molar value.

In the examples that follow, each entry is paired with its recorded pKi.
> print(dat)
                                 mol.smiles  test.value
1  NS(=O)(=O)Nc1ccc(S(=O)(=O)N2CCC(C(=O)N3CCN(C(c4ccccc4)c4ccccc4)CC3)CC2)cc1        5.60
2  NS(=O)(=O)Nc1cccc(S(=O)(=O)NCC(=O)N2CCN(C(c3ccccc3)c3ccccc3)CC2)c1        5.42
3  NS(=O)(=O)Nc1cccc(S(=O)(=O)N2CCN(C(c3ccc(F)cc3)c3ccc(F)cc3)CC2)c1        5.76

**Q:** Give the reported pKi for NS(=O)(=O)Nc1ccc(S(=O)(=O)N2CCC(C(=O)N3CCN(C(c4ccc(F)cc4)c4ccc(F)cc4)CC3)CC2)cc1 (system: VchCAβ (Vibrio cholerae)).
**A:** 5.34

Ref: paper PMC6041819
